Values compiled from BigSolDB 2.1.

Settings: in propylene glycol, 298.2 K
READOUT: solubility (mole fraction)
Respond numerically, and do not add a unit to the figure.

Please look at this compound and report its solubility (mole fraction): NCC(CC(=O)O)c1ccc(Cl)cc1 (stereo unspecified)
0.000271

----------
Conditions: in n-propanol, 293.2 K
READOUT: solubility (mole fraction)

Please report solubility (mole fraction) for the following compound: NCC(CC(=O)O)c1ccc(Cl)cc1 (stereo unspecified)
5.6e-05

----------
Settings: in ethanol, 293.2 K
READOUT: solubility (mole fraction)
Give the figure only, with no unit attached.

Provide one value: measured solubility (mole fraction) of NCC(CC(=O)O)c1ccc(Cl)cc1 (stereo unspecified)
3.25e-05

----------
Details: in methanol, 293.2 K
READOUT: solubility (mole fraction)
Output: the number by itself.

Provide solubility (mole fraction) value for the following compound: NCC(CC(=O)O)c1ccc(Cl)cc1 (stereo unspecified)
0.000123

----------
Settings: in n-propanol, 298.2 K
READOUT: solubility (mole fraction)
A bare number is all that is needed in reply.

Give reported solubility (mole fraction) value for NCC(CC(=O)O)c1ccc(Cl)cc1 (stereo unspecified)
6.26e-05

----------
Details: in n-propanol, 313.2 K
READOUT: solubility (mole fraction)
Enter a number only.

Check the records and state solubility (mole fraction) for NCC(CC(=O)O)c1ccc(Cl)cc1 (stereo unspecified)
8.22e-05

----------
Settings: in methanol, 303.2 K
READOUT: solubility (mole fraction)

Specify reported solubility (mole fraction) for the compound shown: NCC(CC(=O)O)c1ccc(Cl)cc1 (stereo unspecified)
0.00014

----------
Details: in isopropanol, 303.2 K
READOUT: solubility (mole fraction)
Form rule: numeric answer, no unit written next to it.

Write down solubility (mole fraction) measured for item NCC(CC(=O)O)c1ccc(Cl)cc1 (stereo unspecified)
7.64e-05

----------
Details: in methanol, 308.2 K
READOUT: solubility (mole fraction)
Please give only the number in your answer, with no unit.

Give recorded solubility (mole fraction). NCC(CC(=O)O)c1ccc(Cl)cc1 (stereo unspecified)
0.000147

----------
Conditions: in propylene glycol, 293.2 K
READOUT: solubility (mole fraction)

Provide solubility (mole fraction) value for the following compound: NCC(CC(=O)O)c1ccc(Cl)cc1 (stereo unspecified)
0.000216

----------
Conditions: in propylene glycol, 313.2 K
READOUT: solubility (mole fraction)
Answer using only a numeral; do not append any unit.

Determine from records and report solubility (mole fraction) for NCC(CC(=O)O)c1ccc(Cl)cc1 (stereo unspecified)
0.000485

----------
Conditions: in propylene glycol, 308.2 K
READOUT: solubility (mole fraction)

For NCC(CC(=O)O)c1ccc(Cl)cc1 (stereo unspecified) , write its solubility (mole fraction).
0.000424
